system: Staphylococcus aureus; experiment: Minimum inhibitory concentration towards Staphylococcus aureus; format: functional
endpoint.name: MIC (µg/mL)
Numbers only, in µg/mL.

# example entries with known answers
line.notation	numeric.value
O=C1C(Sc2cccc3ccccc23)=C(Sc2cccc3ccccc23)C(=O)c2ccccc21	50
O=C(O)CCSC1=CC(=O)c2ccccc2C1=O	12.5
O=C(O)CCCSC1=CC(=O)c2ccccc2C1=O	12.5

Now consider a different compound.
Lab book: MIC of `O=C1C=C(Sc2ccccc2)C(=O)c2ccccc21` noted as 25

* * *

For each entry below, report its MIC value.
test system: Microsporum canis; test: Minimum inhibitory concentration towards Microsporum canis; format: functional
Numbers only, in µg/mL.

Below is a list of molecules. For each, state its recorded MIC.
1. C[C@@H]1[C@H](O)[C@@H](C)/C=C/C=C/C=C/C=C/C=C/C=C/C=C/[C@H](O[C@@H]2O[C@H](C)[C@@H](O)[C@H](N)[C@@H]2O)C[C@@H]2O[C@](O)(C[C@@H](O)C[C@@H](O)[C@H](O)CC[C@@H](O)C[C@@H](O)CC(=O)O[C@H]1C)C[C@H](O)[C@H]2C(=O)O [AMPHOTERICIN B]
2. O=C(O)CCCSC1=CC(=O)c2c(O)ccc(O)c2C1=O
3. O=C1C(Sc2ccccc2)=C(Sc2ccccc2)C(=O)c2c(Cl)ccc(O)c21

Data returned:
1. 1.56
2. 3.12
3. 50

* * *

tested on: Cryptococcus neoformans; test: Minimum inhibitory concentration towards Cryptococcus neoformans; assay type: functional
endpoint.name: MIC

For orientation, consider the following solved cases.
line.notation	result
O=C(O)c1ccccc1SC1=CC(=O)c2c(Cl)ccc(O)c2C1=O	> 50 µg/mL
O=C1C(=O)c2ccccc2C(O)=C1Sc1ccccc1	> 50 µg/mL
O=C1C=C(Sc2ccccc2)C(=O)c2ccccc21	1.56 µg/mL
O=C1C(Sc2ccccc2)=C(Sc2ccccc2)C(=O)c2c(Cl)ccc(O)c21	> 50 µg/mL
O=C1C(Sc2cccc3ccccc23)=C(Sc2cccc3ccccc23)C(=O)c2c(Cl)ccc(O)c21	> 50 µg/mL

Could I get MIC for every one of these entries?
1. O=C(O)CCCSC1=CC(=O)c2c(O)ccc(O)c2C1=O
2. O=C1C=CC(=O)c2c1c(O)c1sc3ccccc3c(=O)c1c2O

Data returned:
1.56 µg/mL
> 50 µg/mL

* * *

tested on: Cryptococcus neoformans; assay: Minimum inhibitory concentration towards Cryptococcus neoformans; type: functional
Please provide measured MIC for the entries that follow.
Answers are plain numbers, in µg/mL.

Would you please look over these solved cases?
compound	unit.name	MIC
C[C@@H]1[C@H](O)[C@@H](C)/C=C/C=C/C=C/C=C/C=C/C=C/C=C/[C@H](O[C@@H]2O[C@H](C)[C@@H](O)[C@H](N)[C@@H]2O)C[C@@H]2O[C@](O)(C[C@@H](O)C[C@@H](O)[C@H](O)CC[C@@H](O)C[C@@H](O)CC(=O)O[C@H]1C)C[C@H](O)[C@H]2C(=O)O [AMPHOTERICIN B]	µg/mL	0.78
Clc1ccc(COC(Cn2ccnc2)c2ccc(Cl)cc2Cl)c(Cl)c1 (stereo not given) [MICONAZOLE]	µg/mL	12.5

Please find the next compound below.
Briefly, MIC measured for `O=C1C=CC(=O)C(Sc2ccccc2C(=O)O)=C1` : 50
